Assay: Enzyme kinetic analysis of yCD series proteins after DTPA modification, marking and purification
Type: biochemical
metric: Vmax (µM/min)
Express your answer in µM/min, writing the number without its unit.

Reported Vmax, molecule In-DTPA-yCD: DTPA-yCD treated with the stable isotope of indium under simulated marking conditions (conjugate) MVVTGGMASKWDQKGMDIAYEEAALGYKEGGVPIGGCLINNKDGSVLGRGHNMRFQKGSATLHGEISTLENCGRLEGKVYKDTTLYTTLSPCDMCTGAIIMYGIPRCVVGENVNFKSKGEKYLQTRGHEVVVVDDERCKKIMKQFIDERPQDWFEDIGELEHHHHHH : ____ 270.0

Origin of measurements: patent US10947270B2
